# pIC50 per record follows
- experimental target: GSK3α (GST-full length GSK3α) (Homo sapiens (Human), UniProt P49840)
- Sequence (P49840 whole entry): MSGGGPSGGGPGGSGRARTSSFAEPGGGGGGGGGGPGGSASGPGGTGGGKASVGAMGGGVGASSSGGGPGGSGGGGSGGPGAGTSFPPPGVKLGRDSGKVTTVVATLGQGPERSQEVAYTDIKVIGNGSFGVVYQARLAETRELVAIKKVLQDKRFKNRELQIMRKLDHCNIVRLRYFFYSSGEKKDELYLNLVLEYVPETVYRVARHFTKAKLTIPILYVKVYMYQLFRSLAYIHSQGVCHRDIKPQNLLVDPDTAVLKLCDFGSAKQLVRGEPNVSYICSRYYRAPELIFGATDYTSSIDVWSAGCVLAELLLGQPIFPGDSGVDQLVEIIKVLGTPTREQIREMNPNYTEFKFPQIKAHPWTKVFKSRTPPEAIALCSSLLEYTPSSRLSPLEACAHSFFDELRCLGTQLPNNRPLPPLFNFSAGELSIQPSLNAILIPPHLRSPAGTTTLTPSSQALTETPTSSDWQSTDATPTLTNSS
- procedure details: GSK3α TR-FRET kinase assay
- Format: biochemical
- condition description: 1 nM GSK3α, 4 μM ATP, 30 minute preincubation, Table 16; read-out: GSK3-A TR-FRET BIOCHEMICAL (TR-FRET); IC50
pIC50: −log10 of the molar value.

Some entries whose results are on file:
CC[C@]1(c2cccc(C3CC3)c2)C2=C(CC(C)(C)NC2=O)Nc2n[nH]cc21 [Compound 950817] ... < 5.30
CCC1(c2cccc(-c3cn(C)nc3C)c2)C2=C(CC(C)(C)CC2=O)Nc2n[nH]c(C)c21 (stereo not drawn) [Compound 913034] ... 5.30 to 6.00
CCC1(c2cccc(-c3ccncc3C)c2)C2=C(CC(C)(C)CC2=O)Nc2n[nH]cc21 (stereo not drawn) ... ≥ 7.00
CCC1(c2cccc(-c3ccnc(C)c3)c2)C2=C(CC(C)(C)CC2=O)Nc2n[nH]c(C)c21 (stereo not drawn) [Compound 913018] ... ≥ 7.00
CC1(C)CC(=O)C2=C(C1)Nc1n[nH]cc1[C@]21CCC[C@@H](C#N)C1 ... 5.30 to 6.00
CCC1(c2cccc(-c3ccnc(C)c3)c2)C2=C(CC(C)(C)CC2=O)Nc2n[nH]c(C)c21 (stereo not drawn) [Compound 883987] ... ≥ 7.00

Annotate the compound CCC1(c2cccc(N(C)c3nccc(OC)n3)c2)C2=C(CC(C)(C)CC2=O)Nc2n[nH]cc21 (stereo not drawn) with its measured pIC50.
≥ 7.00

###

# IC50 values compiled below
- experimental target: GSK3b (GST-full length GSK3b) (Homo sapiens (Human), UniProt P49841)
- Sequence (P49841 whole entry): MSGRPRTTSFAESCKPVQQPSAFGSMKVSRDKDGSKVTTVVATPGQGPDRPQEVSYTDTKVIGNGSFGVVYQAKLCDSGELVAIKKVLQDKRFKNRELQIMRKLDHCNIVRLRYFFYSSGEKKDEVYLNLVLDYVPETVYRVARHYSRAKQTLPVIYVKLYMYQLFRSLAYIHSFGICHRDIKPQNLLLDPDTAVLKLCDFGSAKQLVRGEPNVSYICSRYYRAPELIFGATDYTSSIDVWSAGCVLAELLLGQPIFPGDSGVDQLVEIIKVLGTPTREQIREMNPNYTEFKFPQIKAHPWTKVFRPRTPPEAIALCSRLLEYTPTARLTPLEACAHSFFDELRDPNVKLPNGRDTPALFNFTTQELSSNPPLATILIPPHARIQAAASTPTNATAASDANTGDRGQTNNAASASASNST
- procedure details: GSK3b TR-FRET kinase assay
- Format: biochemical
- condition description: read-out: GSK3-B (TR-FRET 1 mM ATP); GMean; IC50; 1 mM ATP; geometric mean

The following compounds have reported results that may help.
CCC1(c2cccc(-c3ccncc3C)c2)C2=C(CC(C)(C)NC2=O)Nc2n[nH]c(C(F)(F)F)c21 (stereo not shown) [Compound 947404] ... 100 to 1000 nM
CC[C@@]1(c2cccc(-c3ccnc4c3CCC4)c2)C2=C(CC(C)(C)NC2=O)Nc2n[nH]cc21 ... 1000 to 5000 nM
CC[C@]1(c2cccc(S(=O)(=O)C(C)C)c2)C2=C(CC(C)(C)NC2=O)Nc2n[nH]c(C(F)(F)F)c21 ... ≤ 100 nM

Switching to the query record.
Please indicate IC50 recorded for CCC1(c2cccc(-c3ccnc4c3CCC4)c2)C2=C(CC(C)(C)NC2=O)Nc2n[nH]c(C(F)(F)F)c21 (stereo not shown)
100 to 1000 nM

###

- experimental target: GSK3α (GST-full length GSK3α) (Homo sapiens (Human))
- procedure details: GSK3α TR-FRET kinase assay
- Type: biochemical
- condition description: 1 nM GSK3α, 4 μM ATP, 30 minute preincubation, Table 16; read-out: GSK3-A TR-FRET BIOCHEMICAL (TR-FRET)
measured attribute: IC50

Answered examples (3):
Cc1ccc(S(=O)(=O)N2CCC3(CC2)C2=C(CC(C)(C)CC2=O)Nc2n[nH]cc23)c(C)c1 ... ≤ 0.1 µM
CC1(C)CC(=O)C2=C(C1)Nc1n[nH]cc1C21CCSC1 (stereo not shown) ... ≤ 0.1 µM
CC1(C)CC(=O)C2=C(C1)Nc1n[nH]cc1C21CN(S(=O)(=O)c2ccccc2F)C1 ... 0.1 to 1 µM

Consider the record given below.
Complete the entry with IC50 for CC[C@@]1(c2cccc(C(F)(F)F)c2)C2=C(Nc3n[nH]cc31)C(C)(C)N(C)C2=O
> 5 µM
